Tested on: Wolbachia pipientis
Test: Anti-Wolbachia Cell-Based Screen
Format: functional
Set-up: scale not given: in the data most compounds retested in dose-response had high values
Conditions: 5 µM
About 13,000 (27%) of roughly 48,000 compounds showed an effect of 50% or more. The list shows a part of the results.

| compound | Percent Effect (%) |
| --- | --- |
| CN(C)C(=O)c1ccc(OC2CCCC2)cc1 | 1.251 |
| CCn1ccnc1CN1CCN(Cc2ccccn2)CC1C (configuration not stated) | -25.03 |
| CN(C)C(=O)CCc1cncc(C2CCCN2Cc2ccccn2)n1 (configuration not stated) | 97.92 |
| Cc1cc(=O)[nH]c(=O)n1COCCOCc1ccccc1 | 87.63 |
| COCCn1c(=O)n(Cc2ccccc2C)c2cc(C(=O)O)ccc21 | -8.391 |
| CCCn1ccnc1CN1CCCC1c1ccccn1 (configuration not stated) | 6.189 |
| CCc1nccn1-c1cncc(C2CCCN2CC(=O)N2CCCC2)n1 (configuration not stated) | 115.3 |
| CCc1nccn1-c1cncc(C2CCCN2Cc2ccccc2)n1 (configuration not stated) | 119.3 |
| CCc1nccn1-c1cncc(C2CCCN2Cc2cccnc2)n1 (configuration not stated) | -2.141 |
| O=C(NCC1OCCc2cn(CC3CCOCC3)nc21)c1ccncc1.O=C(O)C(F)(F)F (configuration not stated) | -2.103 |
| CCn1c(C)cc(-c2csc(Cn3ccc(=O)[nH]c3=O)n2)c1C | -14.65 |
| Cc1ccc(S(=O)(=O)NC(=O)CCOCc2ccccc2)s1 | 4.537 |

----------
System: Wolbachia pipientis
Assay: Anti-Wolbachia Cell-Based Screen
Format: functional
Set-up: scale not given: in the data most compounds retested in dose-response had high values
Conditions: 5 µM
The campaign covered roughly 48,000 compounds. About 13,000 (27%) showed an effect of 50% or more. This is one part of the list.
Percent Effect listing for selected molecules.

| molecule | target | readoutUnits | Percent Effect |
| --- | --- | --- | --- |
| NS(=O)(=O)CCNC(=O)C1(c2ccccc2)CC1 | Wolbachia pipientis | % | -12.67 |
| COc1ccc2c(c1)OCC(Cc1cncc(N)c1)C2 (stereo unspecified) | Wolbachia pipientis | % | -0.2819 |
| CC1(C)CN(S(=O)(=O)N2CCOCC2)CC1c1ccccc1 (stereo unspecified) | Wolbachia pipientis | % | -33.51 |
| CN1CCN(C[C@@H]2CN(C(=O)CCc3cn[nH]c3)C[C@@H]2CO)CC1 | Wolbachia pipientis | % | -11.62 |
| O=C(N1CC(c2cccnc2)C1)C1(c2ccc(F)cc2)CCOCC1 | Wolbachia pipientis | % | 1.587 |
| Cl.OC1(Cn2ccc3ncccc32)CCN(Cc2ccccc2F)CC1 | Wolbachia pipientis | % | 103.8 |

----------
Percent Effect listing for selected molecules.
Tested on: Wolbachia pipientis
Test: Anti-Wolbachia Cell-Based Screen
Format: functional
Parameters: scale not given: in the data most compounds retested in dose-response had high values
Conditions: 5 µM
The campaign covered roughly 48,000 compounds. About 13,000 (27%) showed an effect of 50% or more. The list shows a part of the results.

| molecule | Percent Effect [%] |
| --- | --- |
| COC(=O)CC1CCN(C(=O)c2ccc(C)cc2)CC1 | 100 |
| COCC(=O)Nc1nccn1Cc1ccc(Br)cc1 | 8.757 |
| CCNc1ccnc(NC2CCN(C(=O)c3ccc(C)cc3)CC2)n1 | 10.68 |
| COCCN1CCCC(Cc2cnc(-c3c(C)nn(C)c3C)cn2)C1 (configuration not stated) | 161.1 |
| COc1ncccc1C(=O)N1CCC(CNC(C)=O)CC1 | -0.8543 |
| COC(=O)C1CCCN1C(=O)c1ccc(-n2nc(C)cc2C)cc1 (configuration not stated) | -11.77 |
| COCCN1CCC(CN(C)c2ncnc3c2c(C)nn3C)C1 (configuration not stated) | -22.39 |
| CCN1CC(C(=O)N2CCc3cc(C(N)=O)n(C)c3C2)CC1=O (configuration not stated) | 10.03 |
| CSCCc1ccc(NC(=O)NC(C)Cn2cncn2)cc1 (configuration not stated) | -13.08 |
| Cc1nn(C)c(C)c1OCC(=O)N1CCCC1 | -17.38 |
| COC(=O)CC1CCN(C(=O)c2ccc(-n3nnnc3C)cc2)CC1 | 129.7 |
| Cc1cnc(C)c(N2CCCC(C/C=C/c3ccccc3)(C(=O)O)C2)n1 (configuration not stated) | -10.18 |

----------
Percent Effect listing for selected compounds.
System: Wolbachia pipientis
Test: Anti-Wolbachia Cell-Based Screen
Type: functional
Set-up: scale not given: in the data most compounds retested in dose-response had high values
Details: 5 µM
Among all 48,000 compounds or so, about 13,000 (27%) showed an effect of 50% or more. This is one part of the list.
measurementType: Percent Effect

| compound | measurementType | recordedValue |
| --- | --- | --- |
| Cc1nc(CC(C)C)cc(C(=O)N2C[C@@H](N(C)C)[C@H](C(C)C)C2)n1 | Percent Effect | -16.81% |
| Cc1ccc(F)c2c1CCCN2C(=O)Cc1c(C)nn(C)c1C | Percent Effect | -7.331% |
| CC(C)[C@@H]1CN(C(=O)CCc2ccc(F)cc2)C[C@H]1C(=O)O | Percent Effect | -26.1% |
| Cc1ccc(F)c2c1N(C(=O)Cc1c(C)nn(C)c1C)CCC2 | Percent Effect | 55.91% |
| CC1(C)CN(C(=O)CC2CCC2)C[C@]1(C)O | Percent Effect | 6.618% |
| Cc1cc(C(=O)N2C[C@@H](C(=O)O)[C@H](C(C)C)C2)cs1 | Percent Effect | 38.77% |
| CCC(NCc1nccn1C)c1nc(C(F)(F)F)cs1 (configuration not stated) | Percent Effect | 20.15% |
| CC(C)[C@@H]1CN(C(=O)NCc2ccco2)C[C@H]1N(C)C | Percent Effect | -15.37% |
| O=c1[nH]c2ccccc2c(=O)n1Cc1nnnn1C1CC1 | Percent Effect | -11.16% |
| Cc1cc(C(=O)N2C[C@H](C(C)C)[C@@H](N(C)C)C2)cs1 | Percent Effect | 81.51% |
| CC(C)[C@@H]1CN(C(=O)CN(C)Cc2ccc(F)cc2)C[C@H]1C(=O)O | Percent Effect | -17.02% |
| O=C(CCCNC(=O)C1CCCO1)Nc1ccc(Cl)cc1 (configuration not stated) | Percent Effect | 123.9% |
| COCCC(=O)N1C[C@H](C(C)C)[C@@H](N(C)C)C1 | Percent Effect | 108.6% |
| CC(C)[C@H]1CN(C(=O)CO)C[C@@H]1N(C)C | Percent Effect | 109.8% |
| Cc1n[nH]c(=O)c2c(NC(=O)CN3CCC(C)CC3)oc(C)c12 | Percent Effect | 8.431% |
| Cn1cccc1C(=O)N1CC[C@H]2[C@H]1CCN2CC1CC1.O=C(O)C(F)(F)F | Percent Effect | 2.648% |
| CC(=O)c1cc(CN2C[C@@H](N(C)C)[C@H](C(C)C)C2)cs1 | Percent Effect | 13.8% |
| CN(C)C[C@H]1OC[C@@H]2CCN(C(=O)c3ccc[nH]3)C[C@@H]21.O=C(O)C(F)(F)F | Percent Effect | -11.36% |
| O=C(CCC1CCCO1)NS(=O)(=O)c1ccc(Cl)cc1 (configuration not stated) | Percent Effect | -0.06204% |
| Cn1cc(CNc2ccc(CCN3CCC(C(N)=O)CC3)cc2)cn1 | Percent Effect | -15.36% |
| O=C(CCc1nc(Cl)n[nH]1)N1C[C@H](CO)C[C@H](CN2CCCC2)C1 | Percent Effect | -2.773% |
| CC(C)[C@@H]1CN(Cc2cnc(C3CCCCC3)nc2)C[C@H]1N(C)C | Percent Effect | -9.184% |

----------
Test system: Wolbachia pipientis
Test: Anti-Wolbachia Cell-Based Screen
Type: functional
Parameters: scale not given: in the data most compounds retested in dose-response had high values
Details: 5 µM
Among all 48,000 compounds or so, about 13,000 (27%) showed an effect of 50% or more. The list shows a part of the results.

| compound | Percent Effect |
| --- | --- |
| CC(C)N1CC(c2ncc(-c3ccc4c(c3)OCCO4)[nH]2)CC1=O (stereo unspecified) | 5.292% |
| CC(=O)N1CCC(c2n[nH]c3nccnc23)CC1 | 120.8% |
| O=C(Nc1ccccc1)C1CN(Cc2ccco2)CC12CCOCC2.O=C(O)C(F)(F)F (stereo unspecified) | -4.746% |
| CCN(CC)C(=O)N1CCN(Cc2cnc(C)nc2)[C@H]2CS(=O)(=O)C[C@H]21 | 94.21% |
| Cc1ccc(CN2CCN(C(=O)C3CCC3)[C@@H]3CS(=O)(=O)C[C@@H]32)cc1C | 4.312% |
| Cc1ccc2c(c1)C(NCc1ccccn1)CC2 (stereo unspecified) | 6.59% |
| O=C(Cc1ccsc1)N1CCC(c2n[nH]c3nccnc23)CC1 | 72.86% |
| Cc1cc(C)cc(CN2CCN(C(=O)C3CCC3)[C@@H]3CS(=O)(=O)C[C@@H]32)c1 | 5.878% |
| COCCN(c1ccncc1)S(=O)(=O)c1cc(C)cc(F)c1 | -2.462% |
| COCC(=O)N1CCC(c2nccn2CC2CC2)CC1 | -30.12% |
| O[C@H]1CCN(CC2CCOC2)[C@H]1Cc1ccncc1 (stereo partly specified) | -12.65% |
